Answer each item with its documented %-inhibition of FGFR2.
tested target: panel of more than 300 wild-type and mutant kinases (313 kinase panel) (Homo sapiens, UniProt P21802)
procedure details: Kinase profiling in a biochemical assay panel (mobility shift assays and ELISA), %-inhibition at 1 μM; selectivity entropy
assay context: kinase FGFR2; compound at 1 μM
# unit: % | format: bare number

Prompt line: I would be grateful if you could share the reported %-inhibition of FGFR2 for `CC(C)(C)c1nc(-c2cccc(NS(=O)(=O)c3c(F)cccc3F)c2F)c(-c2ccnc(N)n2)s1` .
Response line: 4

Prompt line: Try this molecule next: `CCN(CC)CCNC(=O)c1c(C)[nH]c(/C=C2\C(=O)Nc3ccc(F)cc32)c1C`
Response line: 97

Prompt line: Another molecule to check: `N#CC[C@H](C1CCCC1)n1cc(-c2ncnc3[nH]ccc23)cn1`
Response line: 29

Prompt line: Also `CNC(=O)c1cc(Oc2ccc(NC(=O)Nc3ccc(Cl)c(C(F)(F)F)c3)c(F)c2)ccn1` ?
Response line: 103

Prompt line: Same question, `CC(=O)Nc1cccc(-n2c(=O)n(C3CC3)c(=O)c3c(Nc4ccc(I)cc4F)n(C)c(=O)c(C)c32)c1` this time
Response line: -2.64

Prompt line: Try this molecule too: `Cc1ccc(C(=O)Nc2ccc(CN3CCN(C)CC3)c(C(F)(F)F)c2)cc1C#Cc1cnc2cccnn12`
Response line: 100

Prompt line: Another: `COc1cc2c(Nc3ccc(Br)cc3F)ncnc2cc1OCC1CCN(C)CC1`
Response line: 103

Prompt line: Can you handle `C[C@@H](Oc1cc(-c2cnn(C3CCNCC3)c2)cnc1N)c1c(Cl)ccc(F)c1Cl` next?
Response line: 27

Prompt line: `CO[C@H]1C[C@@H]2CC[C@@H](C)[C@@](O)(O2)C(=O)C(=O)N2CCCC[C@H]2C(=O)O[C@H]([C@H](C)C[C@@H]2CC[C@@H](OCCO)[C@H](OC)C2)CC(=O)[C@H](C)/C=C(\C)[C@@H](O)[C@@H](OC)C(=O)[C@H](C)C[C@H](C)/C=C/C=C/C=C/1C` , same question.
Response line: -10

Prompt line: Follow-up item: `CO[C@H]1C[C@@H]2CC[C@@H](C)[C@@](O)(O2)C(=O)C(=O)N2CCCC[C@H]2C(=O)O[C@H]([C@H](C)C[C@@H]2CC[C@@H](OC(=O)C(C)(CO)CO)[C@H](OC)C2)CC(=O)[C@H](C)/C=C(\C)[C@@H](O)[C@@H](OC)C(=O)[C@H](C)C[C@H](C)/C=C/C=C/C=C/1C`
Response line: -9
